- MEASUREMENT TARGET: CHK1 kinase (Homo sapiens, UniProt O14757)
- Sequence (O14757 whole entry): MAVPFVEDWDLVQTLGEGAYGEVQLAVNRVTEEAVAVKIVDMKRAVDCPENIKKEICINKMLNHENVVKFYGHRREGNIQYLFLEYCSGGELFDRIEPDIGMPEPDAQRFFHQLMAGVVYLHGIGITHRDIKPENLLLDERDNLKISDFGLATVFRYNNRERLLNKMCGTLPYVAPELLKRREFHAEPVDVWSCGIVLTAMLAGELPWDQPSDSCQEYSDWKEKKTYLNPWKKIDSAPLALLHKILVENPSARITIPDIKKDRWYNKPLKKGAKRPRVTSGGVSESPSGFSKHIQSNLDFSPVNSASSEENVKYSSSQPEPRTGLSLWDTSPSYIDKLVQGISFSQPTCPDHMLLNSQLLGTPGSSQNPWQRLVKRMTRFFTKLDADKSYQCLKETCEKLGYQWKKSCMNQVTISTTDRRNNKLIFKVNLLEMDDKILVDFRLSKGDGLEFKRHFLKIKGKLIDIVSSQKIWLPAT
pIC50: −log10 of the molar value.
REPORTED PROPERTY: pIC50

[
  {
    "COMPOUND": "N#Cc1cnc(Nc2cc(-c3c(F)cc(F)cc3OC[C@H]3CCCNC3)[nH]n2)cn1 [Example 56]",
    "pIC50": 8.99
  },
  {
    "COMPOUND": "COc1cccc(OCC2CCNCC2)c1-c1cc(Nc2cnc(C#N)cn2)n[nH]1 [Example 12]",
    "pIC50": 9.14
  },
  {
    "COMPOUND": "COc1cc(Br)cc(OC[C@H]2CCCNC2)c1-c1cc(Nc2cnc(C#N)cn2)n[nH]1 [Example 41]",
    "pIC50": 9.07
  }
]
